Source: patent US7855200B2

Recorded Ulcer index Mean(SE), one value per entry.
- Test system: Pylorus ligated rats
- Assay info: Pylorus ligated ulcers
- Assay type: in vivo, albino rats
- Condition info: 25 mg/kg, 4 hours after pylorus ligation

O=c1cc(-c2ccccc2)oc2cc(OCCCN3CCOCC3)cc(O)c12 [CHM-2]: 25.82 (±2.00)
CN(C)CCCOc1cc(O)c2c(=O)cc(-c3ccccc3)oc2c1 [CHN-2]: 20.83 (±2.00)
COc1c(OC2OC(CO)C(O)C(O)C2O)cc2oc(-c3ccccc3)cc(=O)c2c1O (stereo not drawn) [OA-G]: 35.00 (±2.88)
COc1cc(O)c2c(=O)cc(-c3ccccc3)oc2c1 [Methoxy chrysin]: 48.80 (±3.07)
COc1c(OC(=O)c2ccc(C)cc2)cc2oc(-c3ccccc3)cc(=O)c2c1O [ORPM-1]: 41.66 (±2.78)
COC(=O)C1OC(Oc2ccc3c(=O)cc(-c4ccccc4)oc3c2)C(O)C(O)C1O (stereo not drawn) [CGL]: 19.96 (±6.66)
O=c1cc(-c2ccccc2)oc2cc(OCCCCN3CCOCC3)cc(O)c12 [CHM-3]: 27.46 (±3.00)
COc1c(OC2OC(C(=O)O)C(O)C(O)C2O)cc2oc(-c3ccccc3)cc(=O)c2c1O (stereo not drawn) [OA-5 acid]: 38.33 (±1.66)

Note: attention shifts to another entry.
Q: Specify the recorded Ulcer index Mean(SE) for CN1CCN(CCCCOc2cc(O)c3c(=O)cc(-c4ccccc4)oc3c2)CC1 [NMC-3] , system: Pylorus ligated rats.
Result: 33.33 (±2.47)

====

- System: ethanol induced gastric ulcers
- Assay info: Ethanol induced ulcers
- Format: in vivo, albino rats
- Condition info: rats, 25 mg/kg, ethanol challenge, 4 hours after pylorus ligation
- Method: Stress induced gastric ulceration The commercially available drug ranitidine (sigma), Omeprazole (sigma) and sucralfate (Merck) were used as reference standard in experimental models. The Tween-80 (SD fine chemicals) was used as vehicle for the administration of the drug, which is used as control. The animals were divided into 22 groups of 6 animals each. Animals were deprived of food for 48 hours but had free access to water. […]
pH values by entry

Please review the following examples before continuing.
O=c1cc(-c2ccccc2)oc2cc(OCCCCN3CCOCC3)cc(O)c12: 4.16 (±0.12)
COC(=O)C1OC(Oc2cc3oc(-c4ccccc4)cc(=O)c3cc2OC)C(O)C(O)C1O (centres unmarked): 6.81 (±0.26)
COc1c(OC(=O)c2ccc(C)cc2)cc2oc(-c3ccccc3)cc(=O)c2c1O: 3.50 (±0.18)
COc1c(OC2OC(CO)C(O)C(O)C2O)cc2oc(-c3ccccc3)cc(=O)c2c1O (centres unmarked): 4.31 (±0.11)
COc1c(O)cc2oc(-c3ccccc3)cc(=O)c2c1O: 3.19 (±0.73)

Q: Please give measured pH of the following entry: O=c1cc(-c2ccccc2)oc2cc(O)cc(O)c12 [Chrysin, 5,7-dihydroxy-2-phenyl-chromen-4-one]
Result: 3.20 (±0.40)

Q: Provide only the value of recorded pH for COc1c(OC2OC(C(=O)O)C(O)C(O)C2O)cc2oc(-c3ccccc3)cc(=O)c2c1O (centres unmarked)
Result: 3.20 (±0.17)

Q: Supply pH value. Item: "O=c1cc(-c2ccccc2)oc2cc(OCCCN3CCOCC3)cc(O)c12"
Result: 4.00 (±0.18)

Q: Tell me measured pH for O=c1cc(-c2ccccc2)oc2cc(O)c(O)c(O)c12 [Baicalein, 5,6,7-trihydroxy-2-phenyl-chromen-4-one] please.
Result: 3.33 (±0.10)

Q: Output measured pH for this item: "COc1cc(O)c2c(=O)cc(-c3ccccc3)oc2c1"
Result: 2.91 (±0.15)

====

- Tested on: acetyl salicylic acid induced gastric lesions
- Assay info: Acetyl salicylic acid (aspirin) induced gastric ulcer
- Type: in vivo, albino rats
- Condition info: Rattus norvegicus, po, 120 h; rats, 25 mg/kg per orally daily for five days, aspirin 200 mg/kg
Records here are stratified by inhibition at 25 mg/kg; strata: one: < 10%; two: ≥ 10% and < 50%; three: ≥ 50%

Below, 6 compounds whose answers are already recorded.
COc1cc(O)c2c(=O)cc(-c3ccccc3)oc2c1 [Methoxy chrysin]: two
COc1c(O)cc2oc(-c3ccccc3)cc(=O)c2c1O [Oroxylin A]: one
COc1c(OC2OC(C(=O)O)C(O)C(O)C2O)cc2oc(-c3ccccc3)cc(=O)c2c1O (centres unmarked) [OA-5 acid]: two
O=c1cc(-c2ccccc2)oc2cc(OC3OC(CO)C(O)C(O)C3O)cc(O)c12 (centres unmarked) [CG]: three
O=c1cc(-c2ccccc2)oc2cc(OCCCN3CCCCC3)cc(O)c12 [CPP-2]: three
O=c1cc(-c2ccccc2)oc2cc(O)c(O)c(O)c12 [Baicalein, 5,6,7-trihydroxy-2-phenyl-chromen-4-one]: one

Q: Please classify: O=c1cc(-c2ccccc2)oc2cc(OCCCCN3CCOCC3)cc(O)c12 [CHM-3]
Result: three

Q: Which of the defined bands does the recorded inhibition at 25 mg/kg of CN(C)CCCOc1cc(O)c2c(=O)cc(-c3ccccc3)oc2c1 [CHN-2] sit within?
Result: three

====

- System: ethanol induced gastric ulcers
- Assay info: Ethanol induced ulcers
- Type: in vivo, albino rats
- Condition info: rats, 25 mg/kg, ethanol challenge
- Experimental: Stress induced gastric ulceration The commercially available drug ranitidine (sigma), Omeprazole (sigma) and sucralfate (Merck) were used as reference standard in experimental models. The Tween-80 (SD fine chemicals) was used as vehicle for the administration of the drug, which is used as control. The animals were divided into 22 groups of 6 animals each. Animals were deprived of food for 48 hours but had free access to water. […]
Reported Ulcer index Mean(SE) values for a set of compounds

Known results for compounds:
O=c1cc(-c2ccccc2)oc2cc(OCCCCN3CCOCC3)cc(O)c12: 42.50 (±3.81)
CN(C)CCCOc1cc(O)c2c(=O)cc(-c3ccccc3)oc2c1: 38.33 (±3.07)

Q: Consider the compound "CN1CCN(CCCOc2cc(O)c3c(=O)cc(-c4ccccc4)oc3c2)CC1" tested on ethanol induced gastric ulcers; state its Ulcer index Mean(SE).
Result: 28.33 (±3.33)

====

- Test system: ethanol induced gastric ulcers
- Assay info: Ethanol induced ulcers
- Assay type: in vivo, albino rats
- Condition info: rats, 25 mg/kg, ethanol challenge, 4 hours after pylorus ligation
pH reference

Examples from the recorded data:
O=c1cc(-c2ccccc2)oc2cc(OCCCN3CCCCC3)cc(O)c12: 3.33 (±0.16)
COC(=O)C1OC(Oc2ccc3c(=O)cc(-c4ccccc4)oc3c2)C(O)C(O)C1O (stereo not shown): 3.91 (±0.21)
CN1CCN(CCCOc2cc(O)c3c(=O)cc(-c4ccccc4)oc3c2)CC1: 4.75 (±0.28)
CN1CCN(CCCCOc2cc(O)c3c(=O)cc(-c4ccccc4)oc3c2)CC1: 4.50 (±0.18)
CCCCCCCCCCCCCCCCC(=O)Oc1cc2oc(-c3ccccc3)cc(=O)c2c(O)c1OC: 3.58 (±0.23)

Q: Give the reported pH for this compound. "CN(C)CCCOc1cc(O)c2c(=O)cc(-c3ccccc3)oc2c1"
Result: 5.14 (±0.36)

Q: Item O=c1cc(-c2ccccc2)oc2cc(OC3OC(CO)C(O)C(O)C3O)cc(O)c12 (stereo not shown) : provide pH
Result: 5.90 (±0.49)

====

Recorded inhibition at 25 mg/kg by entry
- Tested on: acetyl salicylic acid induced gastric lesions
- Assay info: Acetyl salicylic acid (aspirin) induced gastric ulcer
- Type: in vivo, albino rats
- Condition info: Rattus norvegicus, po, 120 h; rats, 25 mg/kg per orally daily for five days, aspirin 200 mg/kg
Use % as the unit, but write only the number.

O=c1cc(-c2ccccc2)oc2cc(O)cc(O)c12 [Chrysin, 5,7-dihydroxy-2-phenyl-chromen-4-one]: 46.7
CCCCCCCCCCCCCCCCC(=O)Oc1cc2oc(-c3ccccc3)cc(=O)c2c(O)c1OC: 13.3

Q: Recall and state the measured inhibition at 25 mg/kg for "O=c1cc(-c2ccccc2)oc2cc(OCCCN3CCOCC3)cc(O)c12" .
Result: 55.6

====

- Test system: ethanol induced gastric ulcers
- Assay info: Ethanol induced ulcers
- Format: in vivo, albino rats
- Condition info: rats, 25 mg/kg, ethanol challenge
Quantity kind: Ulcer index Mean(SE)

Take a look at these entries with their results.
COC(=O)C1OC(Oc2ccc3c(=O)cc(-c4ccccc4)oc3c2)C(O)C(O)C1O (stereo not drawn) [CGL]: 25.00 (±2.88)
COc1c(OC2OC(CO)C(O)C(O)C2O)cc2oc(-c3ccccc3)cc(=O)c2c1O (stereo not drawn) [OA-G]: 53.33 (±6.66)
COc1cc(O)c2c(=O)cc(-c3ccccc3)oc2c1 [Methoxy chrysin]: 46.66 (±1.66)
O=c1cc(-c2ccccc2)oc2cc(OCCCN3CCCCC3)cc(O)c12 [CPP-2]: 28.83 (±2.71)
CN1CCN(CCCCOc2cc(O)c3c(=O)cc(-c4ccccc4)oc3c2)CC1 [NMC-3]: 42.50 (±3.09)

Q: Return the recorded Ulcer index Mean(SE) value; entry: O=c1cc(-c2ccccc2)oc2cc(O)cc(O)c12 [Chrysin, 5,7-dihydroxy-2-phenyl-chromen-4-one]
Result: 60.66 (±2.88)

Q: Find the measured Ulcer index Mean(SE) of COC(=O)C1OC(Oc2cc3oc(-c4ccccc4)cc(=O)c3cc2OC)C(O)C(O)C1O (stereo not drawn) [OA-5] and report it.
Result: 11.66 (±4.47)

Q: Provide only the value of recorded Ulcer index Mean(SE) for COc1c(O)cc2oc(-c3ccccc3)cc(=O)c2c1O [Oroxylin A]
Result: 48.33 (±3.33)

Q: // fetch Ulcer index Mean(SE) given entry O=c1cc(-c2ccccc2)oc2cc(OCCCN3CCOCC3)cc(O)c12 [CHM-2]
Result: 40.11 (±3.65)
